study-target: T1, hRARα/mRXRα LBD heterodimer (human | mouse, UniProt P10276 153-421; P28700 228-467)
T1 construct: RARα in pET15b (His-tagged), RXRα in pET3a (no tag named); The heterodimer was formed beforehand by copurification; also called RAR/RXR; RARα/RXRα LBD; copies: 1 + 1
T1 sequence (looked up) 1: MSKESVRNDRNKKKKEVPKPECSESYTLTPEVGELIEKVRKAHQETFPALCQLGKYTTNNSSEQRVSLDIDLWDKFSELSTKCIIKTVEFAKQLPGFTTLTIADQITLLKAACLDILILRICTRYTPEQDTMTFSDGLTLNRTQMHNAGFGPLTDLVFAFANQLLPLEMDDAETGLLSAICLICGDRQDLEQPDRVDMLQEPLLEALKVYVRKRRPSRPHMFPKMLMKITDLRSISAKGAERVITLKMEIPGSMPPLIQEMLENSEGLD
T1 sequence (looked up) 2: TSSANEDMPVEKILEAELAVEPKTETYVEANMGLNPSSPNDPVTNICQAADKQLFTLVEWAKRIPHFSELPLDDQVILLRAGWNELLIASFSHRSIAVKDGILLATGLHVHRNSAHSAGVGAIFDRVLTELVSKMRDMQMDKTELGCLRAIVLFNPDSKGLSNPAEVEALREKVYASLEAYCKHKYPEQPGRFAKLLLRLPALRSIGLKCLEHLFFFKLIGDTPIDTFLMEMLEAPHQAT
protocol-notes: ITC; SRC-1 NR2 peptide (1.3 mM) injected into 20-50 µM RAR or RAR/RXR with LG100754 in fivefold molar excess; 30°C; 20 mM Tris pH 8.0, 200 mM NaCl, 2% ethanol
conditions: both partners purified
quantity: Kd (µM)
Lab book: enter the figure in µM, no units written.

// query Kd value for entry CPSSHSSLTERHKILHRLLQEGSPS (The unlabelled 25-residue peptide used in ITC and ESI-MS; It is not the 13-residue TAMRA-labelled peptide of the anisotropy titrations) [SRC-1 NR2 peptide (676-[residues removed]-700)]
4.5

Reference for the values: paper PMC2994906
